Values from PubChem BioAssay AID2346

- tested target: Sphingosine 1-phosphate receptor 4 (Homo sapiens)
- assay protocol: S1P4 receptor antagonists, human, late-stage follow-up, cell-based, fluorescence, synthesized analogues (AID 2346)
- experimental conditions: S1P4-expressing cells, antagonist fluorescence read-out
pIC50: −log10 of the molar value.
pIC50 listing for selected compounds.
measured property: pIC50

* COc1cccc(OC)c1NC(=O)c1ccc(-c2cc(Cl)ccc2Cl)o1 | 6.38
* Cc1cscc1-c1ccc(C(=O)Nc2c(C)cccc2C)o1 | 6.54
* Cc1ccc(S(C)(=O)=O)c(C)c1NC(=O)c1ccc(-c2cc(Cl)ccc2Cl)o1 | 6.52
* COc1cccc(C)c1NC(=O)c1ccc(-c2cc(Cl)ccc2Cl)o1 | 6.79
* Cc1cccc(Cl)c1NC(=O)c1ccc(-c2cc(Cl)ccc2Cl)o1 | 6.77

---

- tested target: Sphingosine 1-phosphate receptor 4 (Homo sapiens) (UniProt O95977)
- Sequence (O95977 whole entry, looked up): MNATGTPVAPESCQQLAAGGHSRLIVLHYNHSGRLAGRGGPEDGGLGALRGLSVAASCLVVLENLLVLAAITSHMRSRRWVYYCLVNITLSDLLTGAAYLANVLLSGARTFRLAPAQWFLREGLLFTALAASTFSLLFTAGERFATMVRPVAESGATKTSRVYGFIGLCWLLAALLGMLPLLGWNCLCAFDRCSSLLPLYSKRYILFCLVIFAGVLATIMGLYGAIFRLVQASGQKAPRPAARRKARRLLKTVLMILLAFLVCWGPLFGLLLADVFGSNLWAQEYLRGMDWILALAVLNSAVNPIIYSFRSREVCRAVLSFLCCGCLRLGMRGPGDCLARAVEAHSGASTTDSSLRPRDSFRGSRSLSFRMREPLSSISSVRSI
- assay protocol: S1P4 receptor antagonists, human, late-stage follow-up, cell-based, fluorescence, synthesized analogues (AID 2346)
- experimental conditions: S1P4-expressing cells, antagonist fluorescence read-out
pIC50: −log10 of the molar value.
measured property: pIC50

* Cc1cccc(C)c1NC(=O)c1ccc(-c2cc(F)ccc2F)o1 | 6.51
* CC(C)c1cccc(C(C)C)c1NC(=O)c1ccc(-c2cc(Cl)ccc2Cl)o1 | 6.98
* Cc1cccc(C)c1NC(=O)c1ccc(-c2cccc(Cl)c2)o1 | 6.30
* Cc1ccc(C)c(NC(=O)c2ccc(-c3cc(Cl)ccc3Cl)o2)c1 | 6.78
* CCc1cccc(CC)c1NC(=O)c1ccc(-c2cc(Cl)ccc2Cl)o1 | 7.05
* Cc1ccc2ccccc2c1NC(=O)c1ccc(-c2cc(Cl)ccc2Cl)o1 | 6.60
